tested on: SR leukemia; assay: NCI-60 one-dose screen, 48 h (100 = growth as untreated, 0 = no growth, -100 = all killed); details: 10 µM unless noted
The panel holds about 83,000 compounds, 20% with a hit somewhere; the sample as a whole holds those more often.
Short version: growth at least 60% is 1, less is -1.

>  <compound>
CCN1C(=O)/C(=c2\sc3n(c2=O)NC2C(N=3)N(CC)C(=O)N2CC)c2ccccc21 (stereo not given)

>  <classification>
-1

$$$$
>  <compound>
CCOC(=O)c1c(SC)nn(-c2cc(=O)[nH]c3ccc(Br)cc23)c1N

>  <classification>
1

$$$$
>  <compound>
O=C(Nc1ccc(Nc2ncccn2)cc1)NC1C=c2ccccc2=CC1 (stereo not given)

>  <classification>
1

$$$$
>  <compound>
O=C1OC(=O)C2C1CC=CC2c1ccccc1 (stereo not given)

>  <classification>
-1

$$$$
>  <compound>
COc1cc(Nc2cc(O)c3c(=O)cc(-c4ccccc4)oc3c2)cc(OC)c1

>  <classification>
-1

$$$$

====

Test system: UACC-62 melanoma
Test: NCI-60 one-dose screen, 48 h (100 = growth as untreated, 0 = no growth, -100 = all killed)
Conditions: 10 µM unless noted
Description: Growth inhibition of the UACC-62 human tumor cell line is measured as a screen for anti-cancer activity. Cells are grown in 96 well plates and exposed to the test compound for 48 hours. Compounds are tested at a single concentration, which is 10^-5 M for most compounds. The reported endpoint is percent growth (GI% or GIPRCNT), where numbers from 0 - 100% represent growth inhibition, and numbers from -100% - 0 represent cell death. For example, a value of 40 represents 60% growth inhibition. […]
About 83,000 compounds went through this panel and 20% of them were active in at least one assay; those are over-represented in the sample as a whole.
# maps each entry to its growth
measured-quantity: growth (%)

>  <molecule>
Clc1cc(Cl)cc(N2N=C(c3cccc(Nc4ccncc4)c3)CC2c2ccc(Br)cc2)c1 (stereo not given)

>  <reading-unit>
%

>  <number>
102

$$$$
>  <molecule>
CCC(=O)c1ccc(O)c(OC)c1

>  <reading-unit>
%

>  <number>
95.5

$$$$
>  <molecule>
Cc1c(C(=O)NO)sc2ncnc(Nc3ccc(NC(=S)Nc4ccccc4)cc3)c12

>  <reading-unit>
%

>  <number>
95

$$$$
>  <molecule>
CCOC(=O)C1=C(C)NC(C)=C(C(=O)OCC)C1c1cc(Br)c(O)c(OC)c1

>  <reading-unit>
%

>  <number>
48.8

$$$$
>  <molecule>
CN(C)c1ccc(-c2c(C#N)c(N)n3nc(N)c(C#N)c3c2C#N)cc1

>  <reading-unit>
%

>  <number>
113

$$$$

====

tested on: SF-295 CNS; assay: NCI-60 one-dose screen, 48 h (100 = growth as untreated, 0 = no growth, -100 = all killed); details: 10 µM unless noted
Compounds without any hit were thinned out: in the full panel of roughly 83,000, 20% have a hit.
Short version: growth at least 90% is satisfied, less is not satisfied.

>  <molecule>
CCCCCCC/C=C/[C@H]1O[C@]2(O)C(=O)C=C3C[C@@H](O[C@@H]4O[C@H](CO)[C@@H](O)C(O)[C@@H]4O)C[C@@H]3[C@H]2C=C1C (some centres undefined)

>  <classification>
not satisfied

$$$$
>  <molecule>
Cc1cccc(C)c1-c1cc(Cc2ccc(Cl)cc2)c(=O)[nH]n1

>  <classification>
satisfied

$$$$
>  <molecule>
CC(C)C1C2=C(NCCN1C(=O)Cc1ccccc1)C(C)(C)N(Cc1ccccc1)C2=O (centres undefined)

>  <classification>
satisfied

$$$$
>  <molecule>
O=C1NC(=S)NC(=O)C1=Cc1cn(Cc2ccccn2)c2ccccc12

>  <classification>
not satisfied

$$$$
>  <molecule>
CCCCCCCCCCCCCCCC(=O)OC[C@@]1(O)C[C@@]23CC[C@@H]4C(C)(C)CCC[C@@]4(C)[C@@H]2CC[C@H]1C3

>  <classification>
satisfied

$$$$
>  <molecule>
O=C(NCCN1CCOCC1)OCc1nc2nc(Cl)nc(N3CCOCC3)c2[nH]1

>  <classification>
satisfied

$$$$
>  <molecule>
COc1ccc(Nn2c(SCC(=O)Nc3nc(-c4ccc(Cl)cc4)cs3)nc(C)c2C)cc1

>  <classification>
not satisfied

$$$$
>  <molecule>
CCNC(=S)NNC(=O)c1cc2ccc1CCc1ccc(cc1)CC2

>  <classification>
satisfied

$$$$
>  <molecule>
CCC(C)N(CCNc1cc(OC)cc2cccnc12)CCC(C)C (centres undefined)

>  <classification>
satisfied

$$$$
